Target: human Cav2.2 (Homo sapiens, UniProt Q00975)
Sequence (Q00975 whole entry): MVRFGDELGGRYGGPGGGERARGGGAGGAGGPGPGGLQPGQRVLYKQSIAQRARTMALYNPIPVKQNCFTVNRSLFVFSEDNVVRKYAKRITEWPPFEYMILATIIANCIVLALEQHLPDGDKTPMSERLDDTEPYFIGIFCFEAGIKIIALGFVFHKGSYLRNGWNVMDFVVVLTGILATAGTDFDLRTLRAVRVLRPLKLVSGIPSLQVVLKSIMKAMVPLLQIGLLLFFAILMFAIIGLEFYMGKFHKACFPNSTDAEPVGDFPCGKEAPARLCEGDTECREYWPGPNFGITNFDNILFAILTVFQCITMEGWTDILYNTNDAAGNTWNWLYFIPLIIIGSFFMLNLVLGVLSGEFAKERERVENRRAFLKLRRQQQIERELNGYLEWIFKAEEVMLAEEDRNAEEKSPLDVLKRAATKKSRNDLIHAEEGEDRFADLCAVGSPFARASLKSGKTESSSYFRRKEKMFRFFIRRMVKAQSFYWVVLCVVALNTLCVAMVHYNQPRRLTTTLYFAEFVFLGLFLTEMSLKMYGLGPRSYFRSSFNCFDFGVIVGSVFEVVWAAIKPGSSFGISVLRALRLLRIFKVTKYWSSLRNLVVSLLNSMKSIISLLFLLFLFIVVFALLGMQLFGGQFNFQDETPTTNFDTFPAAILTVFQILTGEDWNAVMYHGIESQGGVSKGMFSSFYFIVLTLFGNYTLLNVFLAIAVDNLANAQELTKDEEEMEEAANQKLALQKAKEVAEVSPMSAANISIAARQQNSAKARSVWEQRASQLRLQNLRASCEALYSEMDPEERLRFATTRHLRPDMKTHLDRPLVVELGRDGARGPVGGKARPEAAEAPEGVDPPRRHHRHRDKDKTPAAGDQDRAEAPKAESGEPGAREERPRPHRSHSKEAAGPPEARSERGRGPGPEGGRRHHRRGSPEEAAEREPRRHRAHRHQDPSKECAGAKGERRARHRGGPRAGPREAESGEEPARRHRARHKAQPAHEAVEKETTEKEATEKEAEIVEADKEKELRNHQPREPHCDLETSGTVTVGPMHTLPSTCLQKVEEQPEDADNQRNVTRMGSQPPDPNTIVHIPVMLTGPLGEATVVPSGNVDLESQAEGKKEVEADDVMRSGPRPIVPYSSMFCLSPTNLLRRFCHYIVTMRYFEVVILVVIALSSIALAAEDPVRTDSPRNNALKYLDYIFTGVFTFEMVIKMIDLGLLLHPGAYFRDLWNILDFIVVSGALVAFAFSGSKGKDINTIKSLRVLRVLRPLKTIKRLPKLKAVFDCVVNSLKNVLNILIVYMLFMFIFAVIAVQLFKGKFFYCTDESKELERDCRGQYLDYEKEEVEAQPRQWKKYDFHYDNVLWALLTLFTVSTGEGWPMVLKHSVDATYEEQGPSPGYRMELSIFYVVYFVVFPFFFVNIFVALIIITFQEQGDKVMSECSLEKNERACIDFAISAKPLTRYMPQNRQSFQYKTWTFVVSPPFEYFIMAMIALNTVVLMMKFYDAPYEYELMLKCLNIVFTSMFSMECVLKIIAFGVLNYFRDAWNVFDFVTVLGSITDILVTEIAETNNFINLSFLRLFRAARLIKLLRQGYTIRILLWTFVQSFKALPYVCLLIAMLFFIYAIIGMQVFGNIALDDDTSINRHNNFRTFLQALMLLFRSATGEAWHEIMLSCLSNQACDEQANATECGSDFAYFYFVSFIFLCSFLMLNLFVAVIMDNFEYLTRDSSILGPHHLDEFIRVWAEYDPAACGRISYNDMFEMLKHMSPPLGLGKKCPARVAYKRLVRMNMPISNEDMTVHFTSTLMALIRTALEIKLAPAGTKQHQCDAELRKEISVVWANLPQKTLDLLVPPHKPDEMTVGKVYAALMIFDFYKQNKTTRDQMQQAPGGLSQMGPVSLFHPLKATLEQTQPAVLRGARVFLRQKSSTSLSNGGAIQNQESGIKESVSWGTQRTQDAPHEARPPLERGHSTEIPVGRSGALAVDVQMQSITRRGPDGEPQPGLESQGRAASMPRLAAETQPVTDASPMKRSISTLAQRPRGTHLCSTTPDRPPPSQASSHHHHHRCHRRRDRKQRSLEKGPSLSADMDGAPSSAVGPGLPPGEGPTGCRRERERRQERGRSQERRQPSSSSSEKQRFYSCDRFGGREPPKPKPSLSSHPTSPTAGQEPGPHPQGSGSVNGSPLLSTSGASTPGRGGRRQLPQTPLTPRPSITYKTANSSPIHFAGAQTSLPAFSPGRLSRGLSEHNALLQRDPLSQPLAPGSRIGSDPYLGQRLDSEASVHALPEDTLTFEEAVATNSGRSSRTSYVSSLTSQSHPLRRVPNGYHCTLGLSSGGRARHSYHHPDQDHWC
Sequence (P54289 25-956 partner limits assumed): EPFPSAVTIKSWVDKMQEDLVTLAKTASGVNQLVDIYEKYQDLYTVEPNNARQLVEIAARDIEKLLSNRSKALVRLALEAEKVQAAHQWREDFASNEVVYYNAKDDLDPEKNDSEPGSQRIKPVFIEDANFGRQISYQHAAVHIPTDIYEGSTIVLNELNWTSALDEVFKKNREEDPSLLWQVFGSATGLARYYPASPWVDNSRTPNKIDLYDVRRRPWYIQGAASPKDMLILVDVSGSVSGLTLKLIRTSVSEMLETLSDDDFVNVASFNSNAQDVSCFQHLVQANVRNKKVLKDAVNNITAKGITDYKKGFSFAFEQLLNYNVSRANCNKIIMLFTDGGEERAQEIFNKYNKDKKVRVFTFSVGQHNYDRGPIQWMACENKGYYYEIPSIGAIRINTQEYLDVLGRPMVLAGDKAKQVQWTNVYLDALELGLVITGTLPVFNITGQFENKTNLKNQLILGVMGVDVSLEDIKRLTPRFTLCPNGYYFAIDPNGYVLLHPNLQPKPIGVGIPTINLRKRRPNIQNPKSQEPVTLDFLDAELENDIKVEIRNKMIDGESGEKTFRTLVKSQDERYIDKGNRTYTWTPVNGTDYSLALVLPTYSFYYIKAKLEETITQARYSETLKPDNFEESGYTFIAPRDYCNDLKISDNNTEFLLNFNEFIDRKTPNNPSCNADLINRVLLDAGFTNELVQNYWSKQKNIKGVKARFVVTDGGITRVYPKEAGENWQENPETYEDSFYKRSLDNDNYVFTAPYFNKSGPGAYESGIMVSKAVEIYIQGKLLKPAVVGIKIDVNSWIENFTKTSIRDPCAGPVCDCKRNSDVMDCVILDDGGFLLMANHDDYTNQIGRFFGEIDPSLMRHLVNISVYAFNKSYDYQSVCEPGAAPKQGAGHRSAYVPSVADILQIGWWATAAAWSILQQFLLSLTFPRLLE
Sequence (P54289 957-1103 partner limits assumed): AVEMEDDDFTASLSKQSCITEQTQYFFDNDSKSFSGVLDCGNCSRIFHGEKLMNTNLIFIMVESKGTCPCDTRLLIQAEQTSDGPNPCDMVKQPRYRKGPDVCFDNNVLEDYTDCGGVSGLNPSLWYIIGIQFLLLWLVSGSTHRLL
Sequence (P54284 whole entry partner): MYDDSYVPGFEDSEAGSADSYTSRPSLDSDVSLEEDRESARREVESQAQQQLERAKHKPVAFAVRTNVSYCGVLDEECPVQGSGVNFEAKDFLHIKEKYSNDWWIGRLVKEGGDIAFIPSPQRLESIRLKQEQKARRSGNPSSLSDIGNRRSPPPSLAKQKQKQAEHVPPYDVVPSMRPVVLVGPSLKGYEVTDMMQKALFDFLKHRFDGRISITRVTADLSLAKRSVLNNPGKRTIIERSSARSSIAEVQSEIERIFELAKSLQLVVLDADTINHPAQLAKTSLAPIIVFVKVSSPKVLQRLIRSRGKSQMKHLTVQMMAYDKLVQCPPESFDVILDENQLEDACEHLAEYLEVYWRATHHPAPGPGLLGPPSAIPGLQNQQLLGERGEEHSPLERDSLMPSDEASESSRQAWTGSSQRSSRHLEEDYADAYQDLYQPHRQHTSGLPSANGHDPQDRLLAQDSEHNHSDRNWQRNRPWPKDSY
Test: Assessment of calcium channel activity using FLIPR (Ca2+ influx in IMR32 cells)
Assay type: cell-based
Settings: read-out: IC50 (μM) or percent inhibition (* indicates 3 minute incubation, otherwise 60 minute); IC50; 60 minute pre-incubation with compound; IMR32 cells, 80 mM KCl depolarization
Description: (i) In Vitro Methods—Assessment of Calcium Channel Activity Using FLIPR: The IMR32 cells were maintained in MEM media containing 10% (v/v) FBS, 1% (v/v) antibiotic/antimitotic, 1% (v/v) sodium pyruvate and 1% (v/v) MEM NEAA. […] To determine the IC50 values, the percent inhibition of the compound at each concentration was determined relative to the activity in the absence of inhibitor, and data was fitted using non-linear regression sigmoidal dose response curve analysis with GraphPad Prism®.
Each entry below carries its recorded IC50.
Answer with the figure and its unit, nothing else.

Past entries and their recorded results:
CC[C@H](C(=O)N[C@H]1CC[C@@H]2CN([C@@H](C)c3ccccc3)C[C@@H]21)c1ccccc1 3.82 µM
CC(C)(C)[C@H](C(=O)N[C@@H]1CC[C@H]2CN(Cc3ccccc3)C[C@H]21)c1ccccc1 1.65 µM
O=C(N[C@@H]1CC[C@H]2CN(Cc3ccc(C(F)(F)F)c(F)c3)C[C@H]21)C(C1CCCCC1)C1CCCCC1 5.67 µM

# lookup: IC50 of O=C(N[C@H]1CC[C@H]2CN(CCCc3cccc(Cl)c3)C[C@H]21)C(C1CCCCC1)C1CCCCC1
1.32 µM

# lookup: IC50 of CC(C)C(C(=O)N[C@H]1CC[C@@H]2CN(Cc3ccccc3)C[C@@H]21)C(C)C
13.4 µM

# lookup: IC50 of CC(C)C[C@H](NS(C)(=O)=O)C(=O)N[C@@H]1CC[C@H]2CN(Cc3ccccc3)C[C@H]21
8.58 µM

# lookup: IC50 of CC(C)C[C@H](NC(=O)NC(C)(C)C)C(=O)N[C@@H]1CC[C@H]2CN(Cc3cccc(C(F)(F)F)c3)C[C@H]21
1.83 µM
